Tested on: human red blood cells (HRBC)
Assay: HRBC membrane stabilization method
Settings: Homo sapiens, Erythrocyte, read-out: IC50 Values, HRBC membrane stabilization method
pIC50: −log10 of the molar value.
Reported values of pIC50 for individual entries
measure-name: pIC50

• C=CCc1ccc(OCC(=O)Nc2ccccc2Cl)c(OC)c1 = 4.26
• C=CCc1ccc(OCC(=O)Nc2ccccc2C)c(OC)c1 = 4.10
• C=CCc1ccc(OCC(=O)Nc2ccccc2)c(OC)c1 = 4.10

###

Target: human PPARγ- LBD (Homo sapiens)
Construct: a mixture of a human PPARγ- LBD labelled with glutathione S-transferase (GST)
Experiment: Lanthascreen TR-FRET PPARγ competitive binding assay
Conditions: TR-FRET, 0.8 µM
Entries and their Raw Data - Background values follow.
measure-name: Raw Data - Background (RLU)

• C=CCc1ccc(OCC(=O)Nc2ccccc2)c(OC)c1 [Compound 1a] = 1.664
• C=CCc1ccc(OCC(=O)Nc2ccc([N+](=O)[O-])cc2)c(OC)c1 [Compound 1b] = 1.756
• C=CCc1ccc(OCC(=O)Nc2cccc(C(F)(F)F)c2)c(OC)c1 [Compound 1d] = 1.89
• C=CCc1ccc(OCC(=O)Nc2ccccc2C)c(OC)c1 [Compound 1c] = 1.756
• C=CCc1ccc(OCC(=O)Nc2cccc(Cl)c2)c(OC)c1 [Compound 1e] = 1.683
• C=CCc1ccc(OCC(=O)Nc2ccccc2Cl)c(OC)c1 [Compound 1f] = 2.056

###

Target: human PPARγ- LBD (Homo sapiens, UniProt P37231)
Construct: a mixture of a human PPARγ- LBD labelled with glutathione S-transferase (GST)
Sequence (P37231 238-503 limits assumed): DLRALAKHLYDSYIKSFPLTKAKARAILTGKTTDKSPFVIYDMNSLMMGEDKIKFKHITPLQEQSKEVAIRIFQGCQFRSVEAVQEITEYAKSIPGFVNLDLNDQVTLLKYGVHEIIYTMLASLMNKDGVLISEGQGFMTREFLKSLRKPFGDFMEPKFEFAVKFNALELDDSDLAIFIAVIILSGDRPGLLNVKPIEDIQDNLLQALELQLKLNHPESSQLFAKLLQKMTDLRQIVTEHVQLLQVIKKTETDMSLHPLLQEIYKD
Assay: Lanthascreen TR-FRET PPARγ competitive binding assay
Details: TR-FRET, 0.0064 µM
Entries and their Raw Data - Background
measure-name: Raw Data - Background (RLU)

- C=CCc1ccc(OCC(=O)Nc2ccccc2Cl)c(OC)c1: 2.061
- C=CCc1ccc(OCC(=O)Nc2ccc([N+](=O)[O-])cc2)c(OC)c1: 1.671
- C=CCc1ccc(OCC(=O)Nc2ccccc2)c(OC)c1: 1.685
- C=CCc1ccc(OCC(=O)Nc2ccccc2C)c(OC)c1: 1.651
- C=CCc1ccc(OCC(=O)Nc2cccc(C(F)(F)F)c2)c(OC)c1: 1.836
- C=CCc1ccc(OCC(=O)Nc2cccc(Cl)c2)c(OC)c1: 1.692

###

Biological target: egg albumin (Gallus gallus)
Sequence (P01012 2-386): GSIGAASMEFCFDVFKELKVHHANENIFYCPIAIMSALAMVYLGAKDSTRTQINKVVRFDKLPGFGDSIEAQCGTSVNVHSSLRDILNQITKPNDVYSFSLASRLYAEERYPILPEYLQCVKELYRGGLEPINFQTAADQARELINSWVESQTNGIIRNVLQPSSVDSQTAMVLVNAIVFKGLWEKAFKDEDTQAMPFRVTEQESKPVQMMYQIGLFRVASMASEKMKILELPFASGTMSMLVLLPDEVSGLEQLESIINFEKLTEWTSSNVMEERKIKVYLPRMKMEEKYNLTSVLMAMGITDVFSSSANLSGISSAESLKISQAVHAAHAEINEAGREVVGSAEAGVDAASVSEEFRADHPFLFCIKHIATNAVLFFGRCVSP
Assay: Albumin denaturation assay
Format: biochemical, hen
Conditions: 200 µM; mean ± SD (n = 3); read-out: Percentage inhibition of denaturation of albumin
Label criterion met when inhibition at 200 µM is at or above 50%; anything below gets criterion not met.

* C=CCc1ccc(OCC(=O)Nc2ccccc2C)c(OC)c1 [Compound 1c] | criterion not met
* C=CCc1ccc(OCC(=O)Nc2ccccc2)c(OC)c1 [Compound 1a] | criterion not met
* C=CCc1ccc(OCC(=O)Nc2cccc(C(F)(F)F)c2)c(OC)c1 [Compound 1d] | criterion not met
* O=C(O)Cc1ccccc1Nc1c(Cl)cccc1Cl [Standard Diclofenac, Diclofenac, reference compound] | criterion met
* C=CCc1ccc(OCC(=O)Nc2ccc([N+](=O)[O-])cc2)c(OC)c1 [Compound 1b] | criterion not met
* C=CCc1ccc(OCC(=O)Nc2cccc(Cl)c2)c(OC)c1 [Compound 1e] | criterion not met

The values you see were collected from paper PMC10180488.
